Hello, the source for this data is patent US6043357A, in case you need it.

# Tested system: HIV-1 protease (Human immunodeficiency virus type 1 group M subtype B, UniProt P03369)
# Test: biochemical
# Assay conditions: Table 1; pH 6.5, 37° C.; read-out: IC50
In this section we review reported pIC50 values for a set of compounds.
Worth noting: pIC50 values are minus log10 of concentrations stated in mol/L.

Problem: Suppose we examine the compound NC(=O)C[C@@H]1NC(=O)CCCOc2ccc(cc2)C[C@@H]([C@H](O)CN2CCC[C@H]2C(N)=O)NC1=O ; what pIC50 value has been reported?
Result: 4.26

Problem: # query: pIC50 of entry NC(=O)C[C@@H]1NC(=O)CCCOc2ccc(cc2)C[C@@H]([C@@H](O)CN2CCC[C@H]2C(N)=O)NC1=O
Result: 3.92

====

# Tested system: HIV-1 protease (Human immunodeficiency virus type 1 group M subtype B, UniProt P03369)
# Test: biochemical
# Assay conditions: read-out: IC50
Measured endpoint: IC50 (nM)
Return type: number; implicit unit nM.

Problem: I am curious: what IC50 value has been reported for CC(C)(C)NC(=O)[C@@H]1CCCN1C[C@H](O)[C@@H]1Cc2ccc(cc2)OCCCC(=O)N[C@@H](CC(N)=O)C(=O)N1 ?
Result: 490

Problem: Fill in: IC50 of CC(C)CN(CC(=O)NC(C)(C)C)C[C@@H](O)[C@@H]1Cc2ccc(cc2)OCCCC(=O)N[C@@H](CC(N)=O)C(=O)N1 is ___
Result: 1700

Problem: For CC[C@H](C)[C@H](NC(=O)[C@@H]1CCCN1C[C@H](O)[C@@H]1Cc2ccc(cc2)OCCCC(=O)N[C@@H](CC(N)=O)C(=O)N1)C(N)=O , what is its reported IC50?
Result: 850

====

# Tested system: HIV-1 protease (Human immunodeficiency virus type 1 group M subtype B)
# Test: biochemical
# Assay conditions: Table 9; S isomer; read-out: IC50
Measured endpoint: pIC50
Remember, pIC50 is on a log scale: it is -log10 of the molar concentration.

Problem: Entry Ac-SLNFPIV-NH2 [Compound 84, reference compound] has what pIC50?
Result: 9.00

Problem: Item under review: Ac-LNFPIV-NH2 [Compound 85, reference compound] . Reported pIC50?
Result: 8.05

====

# Tested system: HIV-1 protease (Human immunodeficiency virus type 1 group M subtype B, UniProt P03369)
# Test: biochemical
Measured endpoint: protease inhibition, stated in words

CC(C)CN(CC(=O)NC(C)(C)C)C[C@H](O)[C@@H]1Cc2ccc(cc2)OCCCC(=O)N[C@@H](CC(N)=O)C(=O)N1 = only μM instead of nM
CC(C)CN(CC(=O)NC(C)(C)C)C[C@@H](O)[C@@H]1Cc2ccc(cc2)OCCCC(=O)N[C@@H](CC(N)=O)C(=O)N1 = only μM instead of nM
CCOC(=O)CCCOc1ccc(C[C@H](NC(=O)[C@H](CC(N)=O)NC(C)=O)[C@H](O)CN2CCC[C@H]2C(=O)N[C@H](C(=O)N[C@H](C(N)=O)C(C)C)[C@@H](C)CC)cc1 = slightly reduced potency
CC[C@H](C)[C@@H]1NC(=O)[C@@H](NC[C@@H](O)[C@H](Cc2ccccc2)NC(=O)[C@@H](NC(=O)[C@H](CC(C)C)NC(C)=O)C(C)C)Cc2ccc(cc2)OCCCNC1=O = little effect
CCOC(=O)CCCOc1ccc(C[C@H](NC(=O)[C@H](CC(N)=O)NC(C)=O)[C@@H](O)CN2CCC[C@H]2C(=O)N[C@H](C(=O)N[C@H](C(N)=O)C(C)C)[C@@H](C)CC)cc1 = slightly reduced potency

Now let's try a different one.
Problem: Return protease inhibition, stated in words measured with HIV-1 protease (Human immunodeficiency virus type 1 group M subtype B, UniProt P03369) given this compound: CC[C@H](C)[C@@H]1NC(=O)[C@@H](NC[C@@H](O)[C@H](Cc2ccccc2)NC(=O)[C@@H](NC(=O)[C@H](CC(C)C)NC(C)=O)C(C)C)Cc2ccc(cc2)OCCCCNC1=O
Result: little effect

====

Measured IC50 accompanies every entry in the list below.
# Tested system: HIV-1 protease (Human immunodeficiency virus type 1 group M subtype B, UniProt P03369)
# Test: biochemical
# Assay conditions: Table 2; pH 6.5, 37° C.; read-out: IC50
Response body: numeric value in nM, unit text excluded.

Below: 2 molecules and their reported IC50.
CC[C@H](C)[C@H](NC(=O)[C@@H]1CCCN1C[C@H](O)[C@@H]1Cc2ccc(cc2)OCCCCC(=O)N[C@@H](CC(N)=O)C(=O)N1)C(=O)N[C@H](C(N)=O)C(C)C = 26
CCOC(=O)CCCOc1ccc(C[C@H](NC(=O)[C@H](CC(N)=O)NC(C)=O)[C@@H](O)CN2CCC[C@H]2C(=O)N[C@H](C(=O)N[C@H](C(N)=O)C(C)C)[C@@H](C)CC)cc1 = 45

Problem: May I ask what IC50 has been recorded for CCOC(=O)CCCOc1ccc(C[C@H](NC(=O)[C@H](CC(N)=O)NC(C)=O)[C@H](O)CN2CCC[C@H]2C(=O)N[C@H](C(=O)N[C@H](C(N)=O)C(C)C)[C@@H](C)CC)cc1 ?
Result: 350

====

Collected IC50 values appear next to each entry.
# Tested system: HIV-1 protease (Human immunodeficiency virus type 1 group M subtype B, UniProt P03369)
# Test: biochemical
# Assay conditions: Table 9; R isomer; read-out: IC50
# value in nM; strip the unit string

Ac-LNFPIV-NH2 [Compound 85, reference compound] = 60

Problem: Query the reported IC50 for HIV-1 protease (Human immunodeficiency virus type 1 group M subtype B, UniProt P03369); item: Ac-SLNFPIV-NH2 [Compound 84, reference compound]
Result: 22

Problem: Hi! What's the reported IC50 for Ac-LVFFIV-NH2 [Compound 86, reference compound] on HIV-1 protease (Human immunodeficiency virus type 1 group M subtype B, UniProt P03369)?
Result: 5

====

# Tested system: HIV-1 protease (Human immunodeficiency virus type 1 group M subtype B)
# Test: biochemical
# Assay conditions: Table 10; pH 6.5, 37° C.; read-out: IC50
Listing of entries alongside the reported pIC50.
// returns pIC50 (minus log10 of molar concentration), number only

Below are worked cases with known answers.
CC[C@H](C)[C@@H]1NC(=O)[C@@H](NC[C@@H](O)[C@H](Cc2ccc(OCC(=O)O)cc2)NC(=O)OC(C)(C)C)Cc2ccc(cc2)OCCCNC1=O = 8.30
CC(C)(C)OC(=O)N[C@@H](Cc1ccccc1)[C@H](O)CN[C@H]1Cc2ccc(cc2)OCCCNC(=O)[C@@H](CCC(N)=O)NC1=O = 6.60
CC[C@H](C)[C@@H]1NC(=O)[C@@H](NC[C@@H](O)[C@H](Cc2ccc(OCC(=O)OC)cc2)NC(=O)OC(C)(C)C)Cc2ccc(cc2)OCCCNC1=O = 8.70

Problem: Report pIC50 for CCCCCCOC(=O)COc1ccc(C[C@H](NC(=O)OC(C)(C)C)[C@H](O)CN[C@H]2Cc3ccc(cc3)OCCCNC(=O)[C@H]([C@@H](C)CC)NC2=O)cc1 please.
Result: 8.70

====

# Tested system: HIV-1 protease (Human immunodeficiency virus type 1 group M subtype B, UniProt P03369)
# Test: biochemical
Documented log10 IC50 across a set of compounds
Short version: log10 scale, IC50, nM.

Sample records with log10 IC50:
CC[C@H](C)[C@H](NC(=O)[C@@H]1CCCN1C[C@H](O)[C@@H]1Cc2ccc(cc2)OCC(=O)N[C@H](CCC(N)=O)C(=O)N[C@@H](CC(N)=O)C(=O)N1)C(=O)N[C@H](C(N)=O)C(C)C [Compound 25] = 1.60
CC[C@H](C)[C@H](NC(=O)[C@@H]1CCCN1C[C@@H](O)[C@@H]1Cc2ccc(cc2)OCCCC(=O)N[C@@H](CC(N)=O)C(=O)N1)C(=O)N[C@H](C(N)=O)C(C)C [Compound 2] = 3.20
CC(C)(C)NC(=O)[C@@H]1CCCCN1C[C@@H](O)[C@@H]1Cc2ccc(cc2)OCCCC(=O)N[C@@H](CC(N)=O)C(=O)N1 [Compound 44] = 1.20
CC(C)(C)NC(=O)[C@@H]1CCCCN1C[C@H](O)[C@@H]1Cc2ccc(cc2)OCCCC(=O)N[C@@H](CC(N)=O)C(=O)N1 [Compound 45] = 3.75
CC(C)N(C(=O)[C@@H]1CCCN1C[C@H](O)[C@@H]1Cc2ccc(cc2)OCCCC(=O)N[C@@H](CC(N)=O)C(=O)N1)C(C)C [Compound 41] = 5.46
CC[C@H](C)[C@H](NC(=O)[C@@H]1CCCN1C[C@@H](O)[C@@H]1Cc2ccc(cc2)OCC(=O)N[C@@H](Cc2ccc(O)cc2)C(=O)N[C@@H](CC(N)=O)C(=O)N1)C(=O)N[C@H](C(N)=O)C(C)C [Compound 19] = 2.22
CC(C)CNC(=O)C(Cc1ccccc1)NC[C@@H](O)[C@@H]1Cc2ccc(cc2)OCCCC(=O)N[C@@H](CC(N)=O)C(=O)N1 (stereo partly drawn) [Compound 34] = 3.72
CC[C@H](C)[C@H](NC(=O)[C@@H]1CCCN1C[C@H](O)[C@@H]1Cc2ccc(cc2)OCC(=O)N[C@@H](Cc2ccc(O)cc2)C(=O)N[C@@H](CC(N)=O)C(=O)N1)C(=O)N[C@H](C(N)=O)C(C)C [Compound 18] = 1.58

Problem: Fill in: log10 IC50 of CC(C)(C)NC(=O)CN(Cc1ccccc1)C[C@H](O)[C@@H]1Cc2ccc(cc2)OCCCC(=O)N[C@@H](CC(N)=O)C(=O)N1 [Compound 29] is ___
Result: 4.66
